Reported IC50 values follow for various molecules
- target-or-system: His-PKC-theta (Homo sapiens, UniProt Q04759)
- Construct: His; purchased Invitrogen
- Sequence (Q04759 whole entry): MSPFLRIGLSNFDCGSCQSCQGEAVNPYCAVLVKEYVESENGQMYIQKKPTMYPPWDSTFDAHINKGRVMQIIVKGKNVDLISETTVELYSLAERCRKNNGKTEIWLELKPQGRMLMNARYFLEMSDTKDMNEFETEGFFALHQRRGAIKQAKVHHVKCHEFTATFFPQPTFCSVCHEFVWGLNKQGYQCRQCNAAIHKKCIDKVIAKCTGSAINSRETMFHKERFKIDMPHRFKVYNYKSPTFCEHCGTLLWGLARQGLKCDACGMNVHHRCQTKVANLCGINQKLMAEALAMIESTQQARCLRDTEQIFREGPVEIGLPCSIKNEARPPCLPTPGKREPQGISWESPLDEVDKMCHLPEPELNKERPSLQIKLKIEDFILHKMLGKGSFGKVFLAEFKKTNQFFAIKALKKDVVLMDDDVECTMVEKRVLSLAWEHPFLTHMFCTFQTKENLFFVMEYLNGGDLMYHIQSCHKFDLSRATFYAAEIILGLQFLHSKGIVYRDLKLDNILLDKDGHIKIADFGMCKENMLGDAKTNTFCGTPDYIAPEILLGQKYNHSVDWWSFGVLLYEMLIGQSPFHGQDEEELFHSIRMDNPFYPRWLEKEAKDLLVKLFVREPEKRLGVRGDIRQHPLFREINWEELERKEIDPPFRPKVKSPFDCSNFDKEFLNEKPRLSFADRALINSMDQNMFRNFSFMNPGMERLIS
- procedure-summary: PKC-theta Assay (384-well time resolved fluorescence, IMAP TR-FRET)
- Type: biochemical
- measurement-conditions: Table 2; read-out: Act. Level (IC50 in the PKC-theta Assay)

These solved cases illustrate the format of a correct answer.
Any idea what its IC50 is? The molecule is CC(C)Oc1ccccc1CNc1ncc(C#N)c(N[C@H]2CC[C@@H](O)CC2)n1
100 to 800 nM

Any idea what its IC50 is? The molecule is CC1(C)C[C@H](Nc2nc(NCCc3ccc(OC(F)(F)F)cc3)ncc2C#N)CC[C@@H]1O
100 to 800 nM

Any idea what its IC50 is? The molecule is CC1(C)C[C@H](Nc2nc(NCCc3ccccc3C#N)ncc2C#N)CC[C@@H]1O
100 to 800 nM

Any idea what its IC50 is? The molecule is CC1(C)C[C@H](Nc2nc(NCCc3ccc(F)c(Cl)c3)ncc2C#N)CC[C@@H]1O
< 100 nM

Any idea what its IC50 is? The molecule is CC1(C)C[C@H](Nc2nc(NCCc3ccccc3)ncc2C#N)CC[C@@H]1O
< 100 nM

Any idea what its IC50 is? The molecule is CC1(C)C[C@H](Nc2nc(NCCc3ccc(CO)cc3)ncc2C#N)CC[C@@H]1O
100 to 800 nM

Any idea what its IC50 is? The molecule is COc1cccc(F)c1CNc1ncc(C#N)c(N[C@H]2CC[C@@H](O)CC2)n1
2000 to 10000 nM

Any idea what its IC50 is? The molecule is CC1(C)C[C@H](Nc2nc(NCCc3ccc(CN4CCCC4=O)cc3)ncc2C#N)CC[C@@H]1O
100 to 800 nM

Here is another molecule to look at.
Any idea what its IC50 is? The molecule is Cc1nnnn1-c1ccccc1CNc1ncc(C#N)c(NC2CCC(O)C(C)(C)C2)n1 (stereo not drawn)
< 100 nM

###

- target-or-system: His-PKC-theta (Homo sapiens)
- Construct: His; purchased Invitrogen
- procedure-summary: PKC-theta Assay (384-well time resolved fluorescence, IMAP TR-FRET)
- Type: biochemical
- measurement-conditions: Table 2; read-out: Act. Level (IC50 in the PKC-theta Assay)
pIC50: −log10 of the molar value.
Reported pIC50 values follow for various compounds

These solved cases illustrate the format of a correct answer.
Any idea what its pIC50 is? The compound is COc1ccc(CCNc2ncc(C#N)c(N[C@@H]3CC[C@H](O)C(C)(C)C3)n2)cc1
6.10 to 7.00

Any idea what its pIC50 is? The compound is CN(C)c1ccc(CCNc2ncc(C#N)c(N[C@@H]3CC[C@H](O)C(C)(C)C3)n2)cc1
6.10 to 7.00

Any idea what its pIC50 is? The compound is C[C@@H](CNc1ncc(C#N)c(N[C@@H]2C[C@H](O)C2(C)C)n1)c1ccccc1
5.70 to 6.10

New cases:
Any idea what its pIC50 is? The compound is CC1(C)[C@@H](O)C[C@H]1Nc1nc(NCCc2ccc(-c3ccccc3)cc2)ncc1C#N
6.10 to 7.00

Any idea what its pIC50 is? The compound is CC1(C)[C@@H](O)C[C@H]1Nc1nc(NCCc2ccc(C#N)c(Cl)c2)ncc1C#N
6.10 to 7.00

Any idea what its pIC50 is? The compound is CC1(C)[C@@H](O)C[C@H]1Nc1nc(NCCc2ccc(O)cc2)ncc1C#N
6.10 to 7.00

Any idea what its pIC50 is? The compound is CC1(C)C[C@H](Nc2nc(NCCc3ccc(C(F)(F)F)cc3)ncc2C#N)CC[C@@H]1O
6.10 to 7.00

Any idea what its pIC50 is? The compound is CC1(C)[C@@H](O)C[C@H]1Nc1nc(NCCc2ccc(Cl)c(Cl)c2)ncc1C#N
6.10 to 7.00

Any idea what its pIC50 is? The compound is CC1(C)C[C@H](Nc2nc(NCCc3cc(Cl)ccc3S(N)(=O)=O)ncc2C#N)CC[C@@H]1O
6.10 to 7.00

Any idea what its pIC50 is? The compound is COCCOc1ccc(CCNc2ncc(C#N)c(N[C@@H]3C[C@H](O)C3(C)C)n2)cc1
6.10 to 7.00

Any idea what its pIC50 is? The compound is CC1(C)C[C@H](Nc2nc(NCCc3ccc(S(=O)(=O)N4CCCC4)cc3)ncc2C#N)CC[C@@H]1O
6.10 to 7.00

Any idea what its pIC50 is? The compound is CC1(C)C[C@H](Nc2nc(NCCc3ccc(-n4ccnc4)c(Cl)c3)ncc2C#N)CC[C@@H]1O
> 7.00

Any idea what its pIC50 is? The compound is CC1(C)C[C@H](Nc2nc(NCCc3cccc(F)c3)ncc2C#N)CC[C@@H]1O
> 7.00

Any idea what its pIC50 is? The compound is CC1(C)C[C@H](Nc2nc(NCCc3ccc(C#N)c(C(F)(F)F)c3)ncc2C#N)CC[C@@H]1O
6.10 to 7.00

Any idea what its pIC50 is? The compound is CC(F)(F)COc1cccc(CCNc2ncc(C#N)c(N[C@@H]3CC[C@H](O)C(C)(C)C3)n2)c1
6.10 to 7.00

Any idea what its pIC50 is? The compound is CC1(C)C[C@H](Nc2nc(NCCc3ccc(C(N)=O)cc3)ncc2C#N)CC[C@@H]1O
6.10 to 7.00
